This section presents binders with their documented % gain in binding AUC values.
Target or system: α/β TCR/CD3 complex on Jurkat, Clone E6-1 cells (human) (UniProt P07766)
Protocol: flow cytometry on Jurkat Clone E6-1 cells, Fab titration 10 µg/ml to 10 ng/ml; AUC of MFI vs log concentration, gain vs TPP-1374
Report the figure in % without appending any unit label.

TPP-1381 Fab fragment (Fab, V domains shown) VH: EVQLVQSGAEVKKPGASVKVSCKASGYKFTSYVMHWVRQAPGQGLEWMGYINPYKDVTKYAEKFQGRVTLTSDTSTSTAYMELSSLRSEDTAVHYCARGSYYDYEGFVYWGQGTLVTVSS VL: QIQMTQSPSSLSASVGDRVTITCSATSSVSYMHWYQQKPGKAPKRWIYDTSKLASGVPSRFSGSGSGTDYTLTISSLQPEDAATYYCQQWSSNPLTFGGGTKVEIKR = 98

Consider the record given below.
Req: Given TPP-1388 Fab fragment (Fab, V domains shown) VH: EVQLVQSGAEVKKPGASVKVSCKASGYKFTRYVMHWVRQAPGQGLEWMGYINPYNDVTKYAEKFQGRVTLTSDTSTSTAYMELSSLRSEDTAVYYCARGSYYDYEGFVYWGQGTLVTVSS VL: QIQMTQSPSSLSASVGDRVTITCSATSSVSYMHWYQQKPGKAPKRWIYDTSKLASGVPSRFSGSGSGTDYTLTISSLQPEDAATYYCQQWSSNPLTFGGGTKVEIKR , state its recorded % gain in binding AUC.
Resp: 273
